- assay_comment: Rat colon fecal homogenate stability
- Format: in vitro ADME
- conditions_used: male, rat colon fecal homogenate supernatant, 30 μM, read-out: T½ (In vitro colonic stability, loss of pro-drug)
readout_name: half-life at 30 μM

**Query** Complete the entry with half-life at 30 μM for Cc1cc(COC(=O)N(C)CCN(C)C(=O)n2ccc3c(N(C)[C@H]4CN(C(=O)CC#N)CC[C@H]4C)ncnc32)ccc1O[C@@H]1O[C@H](C(=O)O)[C@@H](O)[C@H](O)[C@H]1O [Compound 5]
**Result** 6 min

* * *

- assay_comment: Metabolic stability in homogenates from rat upper and lower intestinal content
- Assay type: in vitro ADME
- conditions_used: rat, duodenum lumen content, diluted 1:10 in DPBS, Duodenum content, 37° C.
readout_name: half-life at 10 μM

**Query** Complete the entry with half-life at 10 μM for `C[C@@H]1CCN(C(=O)CC#N)C[C@@H]1N(C)c1ncnc2c1ccn2C(=O)N(C)CCN(C)C(=O)OCc1ccc(O[C@@H]2O[C@H](C(=O)O)[C@@H](O)[C@H](O)[C@H]2O)c([N+](=O)[O-])c1`
**Result** > 1 h

* * *

- assay_comment: Metabolic stability in homogenates from rat upper and lower intestinal content
- Assay type: in vitro ADME
- conditions_used: rat, ileum lumen content, diluted 1:10 in DPBS, Ileum content, 37° C.
- Procedure: The conversion of compound 1 to tofacitinib was evaluated in the intestinal lumen content prepared from the various GI segments isolated from freshly sacrificed rats. Each segment of content from the duodenum, jejunum, ileum, and colon was diluted 1:10 in Dulbecco's phosphate buffer saline (DPBS) solution. […] The incubation was conducted in a water bath at 37° C. and time points were taken at 0, 5, 10, 20, 40 and 60 min. […]
readout_name: half-life at 10 μM (min)
Hi! Could you send only the number? It should be in min, unit omitted.

**Query** Complete the entry with half-life at 10 μM for `C[C@@H]1CCN(C(=O)CC#N)C[C@@H]1N(C)c1ncnc2c1ccn2C(=O)N(C)CCN(C)C(=O)OCc1ccc(O[C@@H]2O[C@H](C(=O)O)[C@@H](O)[C@H](O)[C@H]2O)c([N+](=O)[O-])c1`
**Result** 34

* * *

- assay_comment: Metabolic stability in homogenates from rat upper and lower intestinal content
- Assay type: in vitro ADME
- conditions_used: rat, colon lumen content, diluted 1:10 in DPBS, Colon content, 37° C.
readout_name: half-life at 10 μM

**Query** Complete the entry with half-life at 10 μM for `C[C@@H]1CCN(C(=O)CC#N)C[C@@H]1N(C)c1ncnc2c1ccn2C(=O)N(C)CCN(C)C(=O)OCc1ccc(O[C@@H]2O[C@H](C(=O)O)[C@@H](O)[C@H](O)[C@H]2O)c([N+](=O)[O-])c1`
**Result** < 5 min

* * *

- assay_comment: Rat colon fecal homogenate stability
- Format: in vitro ADME
- conditions_used: male, rat colon fecal homogenate supernatant, 10 μM, read-out: T½ (In vitro colonic stability, loss of pro-drug)
readout_name: half-life at 10 μM

Completed entries (count: 3):
**Query** Complete the entry with half-life at 10 μM for `COc1cc(COC(=O)N(C)CCN(C)C(=O)n2ccc3c(N(C)[C@H]4CN(C(=O)CC#N)CC[C@H]4C)ncnc32)ccc1O[C@@H]1O[C@H](C(=O)O)[C@@H](O)[C@H](O)[C@H]1O`
**Result** 3 to 8 min

**Query** Complete the entry with half-life at 10 μM for `C[C@@H]1CCN(C(=O)CC#N)C[C@@H]1N(C)c1ncnc2c1ccn2C(=O)N(C)CCN(C)C(=O)OCc1ccc(O[C@@H]2O[C@H](C(=O)O)[C@@H](O)[C@H](O)[C@H]2O)c([N+](=O)[O-])c1`
**Result** 1 to 15 min

**Query** Complete the entry with half-life at 10 μM for `C[C@@H]1CCN(C(=O)CC#N)C[C@@H]1N(C)c1ncnc2c1ccn2C(=O)N(C)CCN(C)C(=O)OCc1ccc(O[C@@H]2O[C@H](C(=O)O)[C@@H](O)[C@H](O)[C@H]2O)c(Cl)c1`
**Result** 7 min

Okay, next one:
**Query** Complete the entry with half-life at 10 μM for `C[C@@H]1CCN(C(=O)CC#N)C[C@@H]1N(C)c1ncnc2c1ccn2C(=O)N(C)CCN(C)C(=O)OCc1ccc(O[C@@H]2O[C@H](C(=O)O)[C@@H](O)[C@H](O)[C@H]2O)cc1`
**Result** 1 to 13 min
